# measuredOn: ΔF508-CFTR (Homo sapiens, UniProt P13569, DEL508-508)
# Construct: host or cells: CFBE41o-, doxycycline-inducible
# Sequence (P13569 with tags, fused parts or gaps DEL508-508): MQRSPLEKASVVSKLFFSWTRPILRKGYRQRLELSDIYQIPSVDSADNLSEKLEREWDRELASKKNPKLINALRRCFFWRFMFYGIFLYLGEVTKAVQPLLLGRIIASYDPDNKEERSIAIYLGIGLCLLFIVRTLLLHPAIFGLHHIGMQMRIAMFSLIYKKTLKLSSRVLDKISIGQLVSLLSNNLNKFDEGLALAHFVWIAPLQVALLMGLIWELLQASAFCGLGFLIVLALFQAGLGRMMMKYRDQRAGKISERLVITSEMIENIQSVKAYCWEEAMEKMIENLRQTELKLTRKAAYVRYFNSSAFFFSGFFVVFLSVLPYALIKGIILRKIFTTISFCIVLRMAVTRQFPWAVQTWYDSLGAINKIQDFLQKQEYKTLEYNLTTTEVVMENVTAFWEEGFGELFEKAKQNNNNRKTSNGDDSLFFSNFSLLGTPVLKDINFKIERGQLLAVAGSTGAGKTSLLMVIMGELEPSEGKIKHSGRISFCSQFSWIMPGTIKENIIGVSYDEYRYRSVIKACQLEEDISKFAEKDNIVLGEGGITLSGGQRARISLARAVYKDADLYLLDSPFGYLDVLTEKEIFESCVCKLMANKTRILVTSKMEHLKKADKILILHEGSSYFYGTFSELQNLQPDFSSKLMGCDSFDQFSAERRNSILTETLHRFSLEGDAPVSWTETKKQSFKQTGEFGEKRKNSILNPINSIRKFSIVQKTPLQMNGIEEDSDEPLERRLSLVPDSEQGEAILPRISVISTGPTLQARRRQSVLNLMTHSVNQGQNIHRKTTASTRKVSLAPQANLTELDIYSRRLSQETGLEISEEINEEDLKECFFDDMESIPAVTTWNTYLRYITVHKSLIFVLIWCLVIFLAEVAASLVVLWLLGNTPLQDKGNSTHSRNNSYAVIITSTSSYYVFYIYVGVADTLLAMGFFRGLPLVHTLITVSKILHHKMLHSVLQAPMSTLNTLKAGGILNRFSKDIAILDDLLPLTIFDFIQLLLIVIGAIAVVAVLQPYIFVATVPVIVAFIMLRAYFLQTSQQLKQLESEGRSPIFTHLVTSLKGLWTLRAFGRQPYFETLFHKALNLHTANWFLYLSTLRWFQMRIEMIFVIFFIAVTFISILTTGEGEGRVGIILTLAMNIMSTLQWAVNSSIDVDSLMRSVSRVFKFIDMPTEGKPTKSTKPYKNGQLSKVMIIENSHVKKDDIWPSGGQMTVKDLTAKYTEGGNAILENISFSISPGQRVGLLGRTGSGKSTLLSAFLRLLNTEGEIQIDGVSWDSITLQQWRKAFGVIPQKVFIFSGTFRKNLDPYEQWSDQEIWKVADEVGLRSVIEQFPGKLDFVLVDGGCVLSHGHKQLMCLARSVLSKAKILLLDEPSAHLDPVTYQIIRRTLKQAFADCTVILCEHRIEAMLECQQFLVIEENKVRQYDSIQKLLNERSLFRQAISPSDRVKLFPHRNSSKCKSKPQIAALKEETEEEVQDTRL
# assayRemarks: CFTR cell surface levels using HRP-tagged ΔF508-CFTR expressing CFBE cells, in the presence of a co-corrector
# Type: cell-based
# condition: HRP-tagged ΔF508-CFTR expressing CFBE cells, in the presence of 3 μM co-corrector; read-out: EC50
Class boundaries, taken from values of EC50, are as follows: low interval = under 400 nM, middle interval = from 400 nM up to 1000 nM, high interval = 1000 nM and over

Textbook exercise: identify the category of the compound given here, "CC(=O)N1CCC(c2cc(C(=O)O)nc3c2c(C)nn3-c2ccccc2)CC1" , according to its measured value.
high interval

"O=C(O)c1cc(N2CCC(CN3CCCC(F)(F)C3)CC2)c2c(C3CCC3)nn(-c3ccccc3)c2n1" , same question.
low interval

Again, but for Cc1nn(-c2ccccc2)c2nc(C(=O)O)cc(-c3ccc(N4CCC(N(C)C)C4)cc3)c12 (stereo not shown)
high interval

Also need "O=C(O)c1cc(OCCN2CCS(=O)(=O)CC2)c2c(C3CCC3)nn(-c3ccccc3)c2n1" , thanks.
high interval

Same lookup for "O=C(O)c1cc(N2CCC(N3CCOCC3)CC2)c2c(C3CCC3)nn(-c3ccc4c(c3)OC(F)(F)O4)c2n1" , please.
low interval

How about "CC(C)c1nn(C2CCCCC2)c2nc(C(=O)O)cc(C3=CCN(C(=O)OC(C)(C)C)CC3)c12" ?
high interval

Input "CN(c1ccc(-c2cc(C(=O)O)nc3c2c(C2CCC2)nn3-c2ccccc2)cn1)C1CCOCC1"
middle interval

Also, "O=C(O)c1cc(N2CCC(N3CCOCC3)CC2)c2c(C3CCC3)nn(-c3ccc(F)cc3)c2n1" please.
low interval

Then what about the compound "COCc1nn(-c2ccccc2)c2nc(C(=O)O)cc(-c3ccc(N4CCOCC4)cc3)c12" ?
high interval

Follow-up item: "CC(C)c1nn(C2CCCC2)c2nc(C(=O)O)cc(-c3ccc(N(C)C)nc3)c12"
high interval

Follow-up item: CC(C)(C)OC(=O)N1CCCC1c1nn(-c2ccccc2)c2nc(C(=O)O)cc(-c3ccc(N4CCOCC4)nc3)c12 (stereo not shown)
middle interval

Try "O=C(O)c1cc(N2CCCOCC2)c2c(C3CCC3)nn(-c3ccccc3)c2n1" next.
middle interval

Moving on to "Cc1nn(-c2ccccc2)c2nc(C(=O)O)cc(N3CCOCC3)c12"
high interval

Repeat for the following compound: "COCCN(C)c1ccc(-c2cc(C(=O)O)nc3c2c(C(C)C)nn3-c2cccc(N3CCOCC3)c2)cc1"
middle interval

What would you report for "CC(C)OC1CCN(c2cc(C(=O)O)nc3c2c(C2CCC2)nn3-c2ccccc2)CC1" ?
low interval

* * *

# measuredOn: ΔF508-CFTR (Homo sapiens, UniProt P13569, DEL508-508)
# Construct: host or cells: CFBE41o-, doxycycline-inducible
# assayRemarks: CFTR cell surface levels using HRP-tagged ΔF508-CFTR expressing CFBE cells, intrinsic corrector capacity
# Format: cell-based
# condition: HRP-tagged ΔF508-CFTR CFBE41o- cells, compounds alone (intrinsic corrector capacity), 20 hours at 33° C.; positive control 3 μM corrector
Kindly state % Activation for each of the entries shown.
Give your result in % as a bare value.

What value of measured % Activation is listed for CC(C)c1nn(C2CCN(CC#N)CC2)c2nc(C(=O)O)cc(-c3ccc(N4CCOCC4)cc3)c12 [compound 95] ?
16.66

Thanks! And Cc1nn(-c2ccccc2)c2nc(C(=O)O)cc(-c3ccc(N4CCC(N(C)C)C4)cc3)c12 (centres unmarked) [compound 217] ?
129.7

Could you do the same for Cc1nn(-c2ccc(F)cc2F)c2nc(C(=O)O)cc(-c3ccc(N4CCOCC4)cc3)c12 [compound 105] , please?
179.05

Try Cc1nn(-c2ccccc2)c2nc(C(=O)O)cc(OC3COC3)c12 [compound 341] next.
25.115

And then Cc1nn(-c2ccccc2)c2nc(C(=O)O)cc(-c3ccc(N4CCOC(CO)C4)cc3)c12 (centres unmarked) [compound 133] , what is it?
74.96

COc1cc(F)cc(-n2nc(C)c3c(-c4ccc(N5CCOCC5)cc4)cc(C(=O)O)nc32)c1 [compound 52] , same question.
87.35

Follow-up item: Cc1nn(-c2ccccc2)c2nc(C(=O)O)cc(OC[C@@H](F)C3CCOCC3)c12 [compound 335]
100.33

Again, but for CC(=O)Nc1ccc(-c2cc(C(=O)O)nc3c2c(C(C)C)nn3C2CCCCC2)cc1 [compound 171]
199.67

* * *

# measuredOn: ΔF508-CFTR (Homo sapiens, UniProt P13569, DEL508-508)
# Construct: host or cells: CFBE41o-, doxycycline-inducible
# assayRemarks: CFTR cell surface levels using HRP-tagged ΔF508-CFTR expressing CFBE cells, in the presence of a co-corrector
# Format: cell-based
# condition: HRP-tagged ΔF508-CFTR expressing CFBE cells, in the presence of 3 μM co-corrector
readout: % Activation (%)
Give the number; % is assumed, so skip it.

Returns the measured % Activation for the input compound. Input: "Cc1nn(-c2ccccc2)c2nc(C(=O)O)cc(N3CCC4(CC3)CN(C)C(=O)CO4)c12"
128

Would you mind doing "CCCN1CCN(c2cc(C(=O)O)nc3c2c(C(C)C)nn3-c2ccc(F)cc2)CC1" as well?
254.9

Input "CC(C)Oc1nn(C2CCCCC2)c2nc(C(=O)O)cc(-c3ccc(CN4CC(N(C)C)C4)cc3)c12"
362.92

Similarly, "CC(C)CN1C[C@@H]2CN(c3cc(C(=O)O)nc4c3c(C(C)C)nn4-c3ccc(F)cc3)C[C@@H]2C1" ?
358

Continue with COCCOCC1(F)CCCN(c2cc(C(=O)O)nc3c2c(C(C)C)nn3-c2ccc(F)cc2)C1 (stereo not shown)
397.3

Next up: "O=C(O)c1cc(OCCOC2COC2)c2c(C3CCC3)nn(-c3ccccc3)c2n1"
267

Quick one: "O=C(O)c1cc(N2CCC(N3CCOCC3)CC2)c2c(C3CCC3)nn(-c3ccccc3)c2n1"
437.33

Request: "O=C(O)c1cc(N2CCC3(CC2)CC(O)C3)c2c(C3CCC3)nn(-c3ccccc3)c2n1"
304.9

And "Cc1nn(-c2ccccc2)c2nc(C(=O)O)cc(-c3ccc(N4CCOCC4)cc3Cl)c12" ?
258.4

Please give the result for "Cc1nn(-c2ccccc2)c2nc(C(=O)O)cc(-c3ccc(N4CCOCC4)nc3)c12" too.
313.2

Param item: "CC(C)N1CCN(c2ccc(-c3cc(C(=O)O)nc4c3c(C3CCC3)nn4C3CCCCC3)cc2)CC1"
290.65

Same read-out for "CC(C)c1nn(-c2ccc(F)c(F)c2)c2nc(C(=O)O)cc(-c3ccc(N(C)C4CCOCC4)cc3)c12" ?
446.55

Request: "Cc1nn(-c2ccccc2)c2nc(C(=O)O)cc(N3CC4(CCCCO4)C3)c12"
185

Request: "O=C(O)c1cc(N2CCC(N3CCC(F)CC3)CC2)c2c(C3CCC3)nn(-c3ccc(F)cc3)c2n1"
458.6

Consider next the compound "O=C(O)c1cc(N2CCC(N3CCOCC3)CC2)c2c(C3CCC3)nn(-c3ccnc(OCc4ccccc4)c3)c2n1" in the same way.
416.9

Same read-out for O=C(O)c1cc(N2CCC3C(CCN3C3COC3)C2)c2c(C3CCC3)nn(-c3ccc(F)cc3)c2n1 (stereo not shown) ?
411.75

Same read-out for "CN(CCCN(C)C1CCCCC1)c1cc(C(=O)O)nc2c1c(C1CCC1)nn2-c1ccccc1" ?
318.25

And what about the compound "COCCN(C)c1ccc(-c2cc(C(=O)O)nc3c2c(C(C)C)nn3-c2cccc(N3CCOCC3)c2)cc1" ?
432.9

Param item: "COC1CCN(c2cc(C(=O)O)nc3c2c(C(C)C)nn3C2CCCCC2)CC1"
428.47

Also need "CN1CC(Oc2cc(C(=O)O)nc3c2c(C2CCC2)nn3-c2ccccc2)C1" , thanks.
173.6

Same again, this time with "Cc1cccc(-n2nc(C(C)C)c3c(N4CC5(CCC5)C4)cc(C(=O)O)nc32)c1"
311.05

Another compound: "CN(C)[C@@H]1CCN(c2cc(C(=O)O)nc3c2c(C2CCC2)nn3-c2ccccc2)C1"
302.8

// query: "CC(C)c1nn(-c2cc(F)cc(F)c2)c2nc(C(=O)O)cc(-c3ccc(N4CCC(C#N)CC4)cc3)c12"
476.23

Queued: O=C(O)c1cc(N2CCC3(CC2)CC(N2CCCC2)CO3)c2c(C3CCC3)nn(-c3ccc(F)cc3)c2n1 (stereo not shown)
359.6

Can you handle "CC(C)c1nn(C2CCCCC2)c2nc(C(=O)O)cc(-c3ccc(N4CCC(C#N)CC4)nc3)c12" next?
524.85

Next compound: N#CC1CCCN(C2CCN(c3cc(C(=O)O)nc4c3c(C3CCC3)nn4-c3ccc(F)cc3)CC2)C1 (stereo not shown)
681.7

Repeat for the following compound: "O=C(O)c1cc(N2CCC(N3CCOCC3)CC2)c2c(C3CCC3)nn(-c3cc(F)ccc3F)c2n1"
362.05

Request: CCOCC1(F)CCCN(c2cc(C(=O)O)nc3c2c(C2CCC2)nn3-c2ccccc2)C1 (stereo not shown)
322.2

Next: "COC1CCN(c2cc(C(=O)O)nc3c2c(C)nn3-c2ccccc2)CC1"
246.8

What about "CC(=O)N1CCN(c2cc(C(=O)O)nc3c2c(C2CCC2)nn3-c2ccccc2)CC1" ?
374.6

Try the compound "CC(C)c1nn(-c2ccc(F)cc2)c2nc(C(=O)O)cc(N3CCC(CO)CC3)c12"
392.57
